src = patent US20260007601A1

system: 293T cells; test: Cell survival rate assay (CCK-8); assay type: cell-based; details: LNP containing 1.5 μg Fluc-mRNA, 24 hours, CCK-8
attribute_measured: Cell survival rate
Report as: number unit

As a guide, the following entries are already answered.
smiles_representation	study_system	recorded_measurement
CCCCCCCCCCCOC(=O)CCCCCN(CCCCCCCC(=O)OCC(CCCCCCCC)CCCCCCCC)CCN(C)CCO	293T cells	76.81%
CCCCCCC(CCCCCC)CCOC(=O)CCCCCN(CCCCCC(=O)OCCC(CCCCCC)CCCCCC)CCN(C)CCO	293T cells	52.30%
CCCCCCCCC(CCCCCCCC)COC(=O)CCCCCN(CCCCCC(=O)OCC(CCCCCCCC)CCCCCCCC)CCN(CCO)CCO	293T cells	35.26%

// next item, Cell survival rate requested
So what's the measured Cell survival rate for this one? CCCCCCCCC(CCCCCCCC)OC(=O)CCCCCN(CCCCCC(=O)OC(CCCCCCCC)CCCCCCCC)CCN(C)CCNC
23.47%

* * *

experiment: Encapsulation rate, drug loading concentration and total RNA concentration detection (RiboGreen); format: physicochemical
Recorded measurements of drug loading concentration, times that of HHMA, one per entry
Supply the numeric figure in times, leaving out any unit text.

As a guide, the following entries are already answered.
smiles_representation	measurement_unit	recorded_measurement
CCCCCCCCCCCOC(=O)CCCCCN(CCCCCCCC(=O)OC(CCCCCCC)CCCCCCC)CCN(C)CCO	times	1.24
CCCCCCCCCCCOC(=O)CCCCCN(CCCCCCCC(=O)OC(CCCCCCCC)CCCCCCCC)CCN(C)CCO	times	1.32
CCCCCCCCC(CCCCCCCC)COC(=O)CCCCCN(CCCCCC(=O)OCC(CCCCCCCC)CCCCCCCC)CCN(C)CCO	times	1.36

So what's the measured drug loading concentration, times that of HHMA for this one? CCCCCCCCCCCOC(=O)CCCCCN(CCCCCCCC(=O)OCC(CCCCCCCC)CCCCCCCC)CCN(C)CCO
1.21

So what's the measured drug loading concentration, times that of HHMA for this one? CCCCCCCCCCOC(=O)CCCN(CCCCCC(=O)OCC(CCCCCCCC)CCCCCCCC)CCN(C)CCO
1.29

* * *

Recorded measurements of total RNA concentration, times that of YK-009, one per entry
test: Encapsulation rate, drug loading concentration and total RNA concentration detection (RiboGreen); format: physicochemical
Supply the numeric figure in times, leaving out any unit text.

As a guide, the following entries are already answered.
smiles_representation	recorded_measurement
CCCCCCCCCCCOC(=O)CCCCCN(CCCCCCCC(=O)OC(CCCCCCCC)CCCCCCCC)CCN(C)CCO	1.17
CCCCCCCCC(CCCCCCCC)COC(=O)CCCCCN(CCCCCC(=O)OCC(CCCCCCCC)CCCCCCCC)CCN(C)CCO	1.12
CCCCCCCCCCOC(=O)CCCN(CCCCCC(=O)OCC(CCCCCCCC)CCCCCCCC)CCN(C)CCO	1.13
CCCCCCCCCCCOC(=O)CCCCCN(CCCCCCCC(=O)OC(CCCCCCC)CCCCCCC)CCN(C)CCO	1.08

// next item, total RNA concentration, times that of YK-009 requested
So what's the measured total RNA concentration, times that of YK-009 for this one? CCCCCCCCCCCOC(=O)CCCCCN(CCCCCCCC(=O)OCC(CCCCCCCC)CCCCCCCC)CCN(C)CCO
1.11

* * *

test: Encapsulation rate, drug loading concentration and total RNA concentration detection (RiboGreen); assay type: physicochemical
attribute_measured: total RNA concentration, times that of SM-102 (times)
Supply the numeric figure in times, leaving out any unit text.

As a guide, the following entries are already answered.
smiles_representation	recorded_measurement
CCCCCCCCCCCOC(=O)CCCCCN(CCCCCCCC(=O)OCC(CCCCCCCC)CCCCCCCC)CCN(C)CCO	1.22
CCCCCCCCCCCOC(=O)CCCCCN(CCCCCCCC(=O)OC(CCCCCCCC)CCCCCCCC)CCN(C)CCO	1.28
CCCCCCCCCCOC(=O)CCCN(CCCCCC(=O)OCC(CCCCCCCC)CCCCCCCC)CCN(C)CCO	1.24
CCCCCCCCC(CCCCCCCC)COC(=O)CCCCCN(CCCCCC(=O)OCC(CCCCCCCC)CCCCCCCC)CCN(C)CCO	1.23

// next item, total RNA concentration, times that of SM-102 requested
So what's the measured total RNA concentration, times that of SM-102 for this one? CCCCCCCCCCCOC(=O)CCCCCN(CCCCCCCC(=O)OC(CCCCCCC)CCCCCCC)CCN(C)CCO
1.18

* * *

Recorded measurements of Encapsulation rate, one per entry
assay: Encapsulation rate, drug loading concentration and total RNA concentration detection (RiboGreen); format: physicochemical; conditions: LNP formulation of the named lipid
Supply the numeric figure in %, leaving out any unit text.

As a guide, the following entries are already answered.
compound	measurement_unit	Encapsulation rate
CCCCCCCCCCCOC(=O)CCCCCN(CCO)CCCCCCCC(=O)OC(CCCCCCCC)CCCCCCCC [SM-102, reference compound]	%	62.3
CCCCCCCCCCCCC(O)CN(C)CCCCCC(=O)OCC(CCCCCC)CCCCCCCC (stereo not drawn) [HHMA, reference compound]	%	60.5
CCCCCCCCCCCOC(=O)CCCCCN(CCCCCCCC(=O)OC(CCCCCCC)CCCCCCC)CCN(C)CCO	%	91.4

So what's the measured Encapsulation rate for this one? CCCCCCCCCCCOC(=O)CCCCCN(CCCCCCCC(=O)OCCC(CCCCCC)CCCCCC)CCN(C)CCO
91.0

So what's the measured Encapsulation rate for this one? CCCCCCCCC(CCCCCCCC)OC(=O)CCCCCN(CCCCCC(=O)OC(CCCCCCCC)CCCCCCCC)CCN(CCO)CCO
82.0

So what's the measured Encapsulation rate for this one? CCCCCCCCCCOC(=O)CCCN(CCCCCC(=O)OCCC(CCCCCC)CCCCCC)CCOC(=O)SCCCN(C)C
90.4

So what's the measured Encapsulation rate for this one? CCCCCCCCCCCOC(=O)CCCCCN(CCCCCCCC(=O)OC(CCCCCCC)CCCCCCC)CCN(CC)CCO
68.4

So what's the measured Encapsulation rate for this one? CCCCCCCCC(CCCCCCCC)COC(=O)CCCCCN(CCCCCC(=O)OCC(CCCCCCCC)CCCCCCCC)CCN(C)CCO
96.2

* * *

system: 293T cells; assay: Cell survival rate assay (CCK-8); format: cell-based; settings: difference of rates
attribute_measured: cell survival rate higher than that of compound 23 (%)
Supply the numeric figure in %, leaving out any unit text.

molecule	study_system	measurement_unit	recorded_measurement
CCCCCCCCC(CCCCCCCC)COC(=O)CCCCCN(CCCCCC(=O)OCC(CCCCCCCC)CCCCCCCC)CCN(C)CCO [YK-209]	293T cells	%	6.59
CCCCCCCCCCCOC(=O)CCCCCN(CCCCCCCC(=O)OC(CCCCCCCC)CCCCCCCC)CCN(C)CCO [YK-201]	293T cells	%	5.83
CCCCCCCCCCOC(=O)CCCN(CCCCCC(=O)OCC(CCCCCCCC)CCCCCCCC)CCN(C)CCO [YK-207]	293T cells	%	3.78

So what's the measured cell survival rate higher than that of compound 23 for this one? CCCCCCCCCCCOC(=O)CCCCCN(CCCCCCCC(=O)OCC(CCCCCCCC)CCCCCCCC)CCN(C)CCO [YK-202]
6.71

So what's the measured cell survival rate higher than that of compound 23 for this one? CCCCCCCCCCCOC(=O)CCCCCN(CCCCCCCC(=O)OC(CCCCCCC)CCCCCCC)CCN(C)CCO [YK-206]
4.47

* * *

Recorded measurements of encapsulation rate higher than that of SM-102, one per entry
assay: Encapsulation rate, drug loading concentration and total RNA concentration detection (RiboGreen); type: physicochemical; conditions: difference of rates
Supply the numeric figure in %, leaving out any unit text.

As a guide, the following entries are already answered.
molecule	recorded_measurement
CCCCCCCCCCCOC(=O)CCCCCN(CCCCCCCC(=O)OC(CCCCCCC)CCCCCCC)CCN(C)CCO [YK-206]	29.10
CCCCCCCCCCCOC(=O)CCCCCN(CCCCCCCC(=O)OC(CCCCCCCC)CCCCCCCC)CCN(C)CCO [YK-201]	27.20

So what's the measured encapsulation rate higher than that of SM-102 for this one? CCCCCCCCCCCOC(=O)CCCCCN(CCCCCCCC(=O)OCC(CCCCCCCC)CCCCCCCC)CCN(C)CCO [YK-202]
24.00

So what's the measured encapsulation rate higher than that of SM-102 for this one? CCCCCCCCCCOC(=O)CCCN(CCCCCC(=O)OCC(CCCCCCCC)CCCCCCCC)CCN(C)CCO [YK-207]
28.50

So what's the measured encapsulation rate higher than that of SM-102 for this one? CCCCCCCCC(CCCCCCCC)COC(=O)CCCCCN(CCCCCC(=O)OCC(CCCCCCCC)CCCCCCCC)CCN(C)CCO [YK-209]
33.90
